# SYSTEM UNDER TEST: RSV F on RSV-A2 virus (Respiratory Syncytial Virus (RSV-A2), UniProt P03420 26-574)
# EXPERIMENTAL PROTOCOL: cell-based or functional assay
REPORTED PROPERTY: Neutralization IC50 (RSV subtype A)

BINDER: ADI-41505 (antibody, V domains shown) VH: QVQLQQSGAGLLKPSETLSLTYVVYGGSFSGYYWSWIRQPPGKGLEWVGDINHSTTTNYNPSLESRITISIDTSKNQFSLNLSSVTAADSAVYYCARGPKECTSSSCDRFGVDYFYYGMDVWGRGTTVTVSS VL: QSVLTQPPSVSGAPGQRVTISCTGSSANIGAGYDVHWYQQFPGTAPKLLIFGNSNRPSGVPDRFSGSKSGTSASLAITGLQAGDEADYYCQSYDGTLGGWVFGGGTQLTVL
Neutralization IC50 (RSV subtype A): > 25 µg/mL
--
BINDER: ADI-41466 (antibody, V domains shown, also called Ab 750; Antibody Number 750) VH: QVQLVQSGAEVKKPGASVKVSCKASGYTFNFYYMHWVRQAPGQGLEWMGWINPKSGGTSYAQKFQGRVIMTGDTSISTTYMELSRLRSDDTAVYYCARADTGLELDVWGQGTTVTVSS VL: QSALIQPASVSGSPGQSITISCTGTSSDVGGYNYVSWYQQHPGKAPKLILYDVSKRPSGVSNRFSGSKSGNTASLTISGLQAEDESDYFCSSYTRSNTVVFGGGTKVTVL
Neutralization IC50 (RSV subtype A): > 25 µg/mL

Continue with the next binder.
What value of Neutralization IC50 (RSV subtype A) has been reported for the following binder? ADI-43645 (antibody, V domains shown, also called Ab 826; Antibody Number 826) VH: QVQLVQSGAEVKKPGSSVKVSCKASGGTFSSYAISWVRQAPGQGLEWMGGIIPIFGTANYAQKFQGRVTITADESTSTAYMELSSLRSEDTAVYYCARGWRGGGMTGSYYYYGMDVWGQGTTVTVSS VL: DIQVTQTPSTLSASVGDRVTITCRASQSISSWLAWYQQKPGKAPKLLIYKASSLESGVPSRFSGSGSGTEFTLTISSLQPDDFATYYCQQHRGTFGQGTKVDIK
> 25 µg/mL

The reported measurements were obtained from patent US20260258115A1.
